- assay-system: T1, Human VEGFA165 (human, UniProt P15692-4 27-191)
- T1 construct: treated as the same molecule; also called antigen VEGFA
- T1 sequence (P15692 other isoform, or with tags, fused parts or gaps limits assumed): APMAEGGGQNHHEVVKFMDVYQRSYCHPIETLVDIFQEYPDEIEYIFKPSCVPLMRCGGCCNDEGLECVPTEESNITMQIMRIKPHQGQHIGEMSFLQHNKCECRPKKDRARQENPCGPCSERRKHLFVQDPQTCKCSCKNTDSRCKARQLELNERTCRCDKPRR
- experiment-summary: phage ELISA, VEGFA coated 0.5 µg/mL, anti-M13(HRP)
Each entry below carries its reported OD450.
quantity-name: OD450

V41 (VHH, Purified with C-terminal GGGGS-6×His) VHH: QLQLVESGGGSVQPGGSLRLSCEVSGRTFSSYTMGWFRQAPGKEREFVVAISKGGYKYDSVSLEARFTISKDNTKNTVYLQMNSLKPEDTAVYYCAGTRAYGSSRLRLAKTYEYWGQGTQVTVSS : 2.77 OD450
V33 (VHH, Purified with C-terminal GGGGS-6×His) VHH: QLQLVESGGGSVQPGGSLRLSCEVSGRTFSSYTMGWFRQAPGKEREFVVAISKGGYKYDSVSLEARFTISKDNTKNTVYLQMNSLKPEDTAVYYCAATRAYGSSRLRLAKTYEYWGQGTQVTVSS : 2.53 OD450
V43 (VHH, Purified with C-terminal GGGGS-6×His) VHH: QLQLVESGGGSVQPGGSLRLSCEVSGRTFTSYTMGWFRQAPGKEREFVVAISKGGYKYDSVSLEARFTISKDNTKNTVYLQMNSLKPEDTAVYYCAGTRAYGSSRLRLANTYEYWGQGTQVTVSS : 2.5 OD450
V36 (VHH, Purified with C-terminal GGGGS-6×His) VHH: QLQLVESGGGSVQPGGSLRLSCEVSGRTFASYTMGWFRQAPGKEREFVVAISKGGYKYDSVSLEARFTISKDNTKNTVYLQMNSLKPEDTAVYYCAGTRAYGSSRLRLADTYEYWGQGTQVTVSS : 2.77 OD450
